Measurement notes: Cytotoxicity against human HCT116 cells assessed as cell death at 25 uM after 20 hrs by celltiter blue assay (reference value: 0.4%)
Format: cell-based
Experimental parameters: hct-116, 20 h
Let's look at some molecules and their measured Cell death.

Oc1ccc2ccccc2c1C(Nc1ccccc1)c1ccccc1 (stereo unspecified): < 10%
O=C(O)c1ccc(NC(c2ccccc2)c2ccc3ccccc3c2O)cc1 (stereo unspecified): < 10%

query: Quick one: Cell death of Oc1c(C(Nc2ccccc2)c2c(F)cc(Br)cc2F)ccc2cccnc12 (stereo unspecified) ?
result: < 10%

query: Quick one: Cell death of Oc1ccc2ccc(O)c(C(Nc3ccccc3)c3ccccc3)c2c1 (stereo unspecified) ?
result: < 10%

query: Quick one: Cell death of O=C(O)c1ccc(NC(c2ccc3cccnc3c2O)c2c(F)cc(Br)cc2F)cc1 (stereo unspecified) ?
result: < 10%

query: Quick one: Cell death of O=C(O)c1ccc(NC(c2ccc(F)cc2)c2ccc3cccnc3c2O)cc1 (stereo unspecified) ?
result: < 10%

* * *

Assay target: CAAX prenyl protease 2 (Homo sapiens) (UniProt Q9Y256)
Sequence (whole entry): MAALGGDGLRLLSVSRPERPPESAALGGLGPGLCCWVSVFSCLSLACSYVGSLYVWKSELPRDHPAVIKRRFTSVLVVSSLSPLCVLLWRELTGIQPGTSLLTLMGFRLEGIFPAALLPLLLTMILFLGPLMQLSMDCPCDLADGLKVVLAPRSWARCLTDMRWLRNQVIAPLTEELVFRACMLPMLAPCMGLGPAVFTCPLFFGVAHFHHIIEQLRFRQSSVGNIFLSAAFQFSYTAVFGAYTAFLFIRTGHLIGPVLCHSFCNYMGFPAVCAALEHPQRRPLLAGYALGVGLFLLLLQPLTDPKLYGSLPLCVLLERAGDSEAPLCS
Measurement notes: Inhibition of human Rce1-mediated CaaX protease activity using […] and […] as substrate assessed as residual activity at 10 uM measured every 30 to 60 seconds for 60 mins
Property measured: Activity
Put your answer as a value accompanied by its unit after it.

O=C(O)c1ccc(NC(c2ccc3cccnc3c2O)c2c(F)cc(Br)cc2F)cc1 (stereo not drawn): 64%
CCOC(=O)c1ccc(NC(c2ccc(F)cc2)c2ccc3cccnc3c2O)cc1 (stereo not drawn): 63%

Would you kindly look at the next entry?
query: Quick one: Activity of Oc1c(C(Nc2ccccc2)c2ccccc2)ccc2cccnc12 (stereo not drawn) ?
result: 39%

* * *

Assay target: UniProtKB Q9Y256
Sequence (whole entry): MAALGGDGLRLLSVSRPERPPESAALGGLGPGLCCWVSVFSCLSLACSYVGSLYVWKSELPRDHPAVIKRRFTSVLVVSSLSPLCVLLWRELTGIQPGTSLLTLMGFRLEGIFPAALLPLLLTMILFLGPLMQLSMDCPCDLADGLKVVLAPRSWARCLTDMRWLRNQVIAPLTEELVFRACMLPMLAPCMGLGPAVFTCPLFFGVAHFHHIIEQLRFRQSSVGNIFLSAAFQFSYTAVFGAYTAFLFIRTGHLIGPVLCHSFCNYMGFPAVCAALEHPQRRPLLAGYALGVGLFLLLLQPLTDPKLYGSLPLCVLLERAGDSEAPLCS
Measurement notes: Inhibition of human Rce1-mediated CaaX protease activity using […] and […] as substrate assessed as residual activity at 10 uM measured every 30 to 60 seconds for 60 mins
Property measured: Activity (%)
Numbers only; they are read as %.

C[C@@H](N[C@H](c1ccccc1)c1c(O)ccc2ccccc12)c1ccccc1: 63
O=C(O)c1ccc(NC(c2ccc(F)cc2)c2ccc3cccnc3c2O)cc1 (centres undefined): 32
CCOC(=O)c1ccc(NC(c2ccc3cccnc3c2O)C2CCCC2)cc1 (centres undefined): 82
O=C(OCc1ccccc1)c1ccc2ccc(C(Nc3ccccc3)c3ccccc3)c(O)c2n1 (centres undefined): 75
O=C(Nc1ccccc1)c1ccc(NC(c2ccc(Br)cc2)c2ccc(Br)cc2)cc1: 80
O=C(O)c1cccc(NC(c2ccccc2)c2ccc3ccccc3c2O)c1 (centres undefined): 23
CCOC(=O)c1ccc(NC(c2ccccc2)c2ccccc2)cc1: 82
N#Cc1ccc(NC(c2ccccc2)c2ccc3cccnc3c2O)cc1 (centres undefined): 56

Would you kindly look at the next entry?
query: // fetch UniProtKB Q9Y256 Activity for Oc1c(C(Nc2ccccc2)C2CCCCC2)ccc2cccnc12 (centres undefined)
result: 59
